# Tested on: SNB-19 CNS
# Test Details: NCI tumour cell line growth inhibition, 48 h
Examples of compounds with documented GI50 follow.

Compound: Cc1ccc(C2C3=C(N=c4s/c(=C/c5ccc(Br)cc5)c(=O)n42)c2ccc4ccccc4c2OCC3)cc1 (stereo not given)
GI50: > 100 µM
//
Compound: NC(=S)N/N=C\c1nccc2c(N)cccc12
GI50: 0.557 µM
//
Compound: C(=C\c1nccc2c1[nH]c1ccccc12)/c1ccccc1
GI50: 4.4 µM
//
Compound: CCCCCCCCCCCCCC(=O)C(C)N (stereo not given)
GI50: 13.5 µM

The reported GI50 of the compound `CC(=O)[C-](C(C)=O)c1ccccc1.CC(=O)[C-](C(C)=O)c1ccccc1.CC[O-].CC[O-].[Ti+4]` was > 100 µM

The reported GI50 of the compound `CS(=O)(=O)CCn1c(=O)c(Oc2ccc(F)cc2F)cc2cnc(NC3CCOCC3)nc21` was > 25 µM

The reported GI50 of the compound `CCCCCCNc1nc(N2CCOCC2)c2[nH]c(NCCCCCC)nc2n1` was 1.8 µM

The reported GI50 of the compound COC(=O)C1(C2CC/C(C)=C/CC/C(C)=C/CC[C@@]3(C)O[C@@H]3C2)CC1 (stereo not given in full) was > 100 µM

The reported GI50 of the compound CC1SC(c2c(Cl)cccc2Cl)N(NC(=O)C(O)c2ccccc2)C1=O (stereo not given) was > 100 µM

The reported GI50 of the compound `O=C1c2ccn(CCCCN3CCCCC3)c2C(=O)c2c1c(O)c1ccccc1c2O` was 19.1 µM
